All figures here come from PubChem BioAssay.

# protocolText: small-molecule binders of probe aNOTCH3, primary screen, biochemical, small-molecule microarray, 635/667 nm fluorescence (AID 1120);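 note: probe is a biotin-tagged antibody raised against NOTCH3 rather than NOTCH3 protein; score merges spot fluorescence near 667 nm with spot signal to noise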
# conditionInfo: higher = more signal
attributeMeasured: composite z-score

Query block: Reported composite z-score for "COc1cccc([C@@H]2[C@@H](C)CC[C@H]3C(=O)N4[C@H](c5cccc(OC)c5)[C@@H](C)CC[C@H]4C(=O)N23)c1" : what is it?
Result block: 0.0193

Query block: Reported composite z-score for "CCCN1C(=O)[C@@]2(CCS(=O)(=O)c3ccccc3)N=C(c3ccc(OCCCO)cc3)O[C@H]2c2ccccc21" : what is it?
Result block: 0.0833

Query block: Reported composite z-score for "CC[C@@H]1C=C(C(=O)O)[C@H](c2ccccc2)N1S(=O)(=O)c1ccc([N+](=O)[O-])cc1" : what is it?
Result block: 0.0793

Query block: Reported composite z-score for "CCCCCCc1nc(C2CC2)c(C)c2c1[Si](C(C)C)(C(C)C)OC2" : what is it?
Result block: -0.0647

###

# protocolText: S. cerevisiae RM11-1a growth modifiers, primary screen, strain RM11-1a, OD600, basal, 24 h (AID 1177);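 note: cultures grown under basal conditions with no added stressor; test concentration not given here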
# conditionInfo: OD600, 24 h, higher = more signal, called active from +8 up or from −8 down
So basically, the class depends on measured z-score, and the ranges are bucket 1 = under -0.7, bucket 2 = from -0.7 up to 0.2, bucket 3 = 0.2 and over

Query block: Band assignment needed for "CCOC(=O)C[C@H]1[C@H](OC(=O)c2ccccc2-c2ccccc2)[C@@H](NC(=O)C2CCCCC2)c2cc(OCCCO)ccc2N1C(=O)c1ccccc1" please.
Result block: bucket 3

Query block: Band assignment needed for C=CCC(OC(C)=O)[C@@H]1[C@@H](N(Cc2cccc3ccccc23)C(=O)c2ccc(C)cc2)c2cc(OCCCO)ccc2N1C(=O)c1ccc(-c2ccccc2)cc1 (some centres undefined) please.
Result block: bucket 1

Query block: Band assignment needed for "COC(=O)C(CC#Cc1ccc2c(c1)[C@]1(C(=O)N2)[C@H](C(=O)N2CCCCCCC2)[C@H]2C(=O)O[C@H](c3ccccc3)[C@H](c3ccccc3)N2[C@@H]1c1ccc(O)cc1)C(=O)OC" please.
Result block: bucket 2

Query block: Band assignment needed for "COc1cc(CO)cc(I)c1O[C@H]1C=C(C(=O)NCCO)C[C@@H](N(CC2CCCCC2)C(=O)c2cc3ccccc3oc2=O)[C@@H]1O" please.
Result block: bucket 3

Query block: Band assignment needed for "CO[C@@H]1COC(=O)CC=C[C@@H](C)[C@H](OC)COC(=O)CC=C[C@H]1C" please.
Result block: bucket 2

Query block: Band assignment needed for "COc1cc(CO)cc(I)c1O[C@H]1C=C(C(=O)NCCO)C[C@@H](NCCc2c[nH]c3ccccc23)[C@@H]1O" please.
Result block: bucket 3

Query block: Band assignment needed for "CCCC=C(CCC)[C@@H](NC(=O)c1ccccc1)c1ccccc1" please.
Result block: bucket 2

Query block: Band assignment needed for "C#CCCCON=C1C[C@@H](O)[C@@H](O)[C@@H]2[C@@H]3C(=O)N(Cc4ccc5c(c4)OCO5)C(=O)[C@@H]3CC[C@@H]12" please.
Result block: bucket 3

Query block: Band assignment needed for "CO[C@H]1O[C@H](CO)[C@@H](OC(=O)Nc2ccc(Oc3ccccc3)cc2)[C@H](OC(=O)Nc2ccccc2-c2ccccc2)[C@H]1OC(=O)Nc1ccccc1-c1ccccc1" please.
Result block: bucket 3

Query block: Band assignment needed for "C=CC[C@]1(C(N)=O)N=C(c2ccc(OCCCO)cc2)O[C@H]1c1ccccc1CN=[N+]=[N-]" please.
Result block: bucket 2

Query block: Band assignment needed for "COc1ccc(CCNC(=O)[C@@]2(c3ccc([N+](=O)[O-])cc3)CC(=O)N(C(C)C)[C@@H]2c2ccc(CO)cc2)cc1" please.
Result block: bucket 1

Query block: Band assignment needed for "O=C1O[C@@H](c2ccccc2)[C@@H](c2ccccc2)N2[C@@H](c3ccc(O)cc3)[C@]3(C(=O)Nc4ccccc43)[C@@H](C(=O)N3CCN(c4ncccn4)CC3)[C@H]12" please.
Result block: bucket 2

Query block: Band assignment needed for "CO[C@H]1COC(=O)[C@@H](C)NC(=O)CC=C[C@@H](C)[C@H](OC)COC(=O)CC=C[C@@H]1C" please.
Result block: bucket 1
